# method description: Efflux ratio of apparent permeability across basolateral to apical over apical to basolateral side in human Caco2 cells
# Assay type: ADME, cell-based
# recorded conditions: Caco-2
Collected efflux ratio values appear next to each entry.

**Q:** Identify efflux ratio associated with the compound "CCNC(=O)Nc1cc(Nc2ccc(OC)cc2)c(C(=O)Nc2cccnc2)cn1"
**A:** 2.82

**Q:** Identify efflux ratio associated with the compound CCNC(=O)Nc1cc(N2CCC(N)C2)c(C(=O)Nc2cccnc2)cn1 (stereo not drawn)
**A:** 2.78

**Q:** Identify efflux ratio associated with the compound "CCNC(=O)Nc1cc(-n2cccn2)c(C(=O)Nc2cccnc2)cn1"
**A:** 30.8
